# measurement_notes: in vitro
# assay_setup: PAMPA, pH 7.4
property: Papp at 250 µM

(Q) Form field: reported Papp at 250 µM of Cn1c(=O)c2[nH]cnc2n(C)c1=O.O
(A) 0.4 to 0.66 ×10⁻⁶ cm/s

* * *

# measurement_notes: Selectivity index, ratio of IC50 for equine serum BChE to IC50 for human erythrocyte AChE
Could you please mark Condition met for values of Ratio IC50 below 20 and Condition not met for values at or above it?

Reference set (4 entries):
(Q) Answer whether the compound COc1ccc(C(=O)CCc2cc[n+](Cc3cccc(Cl)c3)cc2C(C)=O)cc1OC has Ratio IC50 strictly less than 20
(A) Condition not met

(Q) Could you do the same for COC(=O)c1ccccc1C[n+]1ccc(CC2Cc3cc(OC)c(OC)cc3C2=O)c(C(=O)Oc2c(Cl)cc(Cl)cc2Cl)c1 (stereo not given) , please?
(A) Condition met

(Q) Okay, and COc1ccc2c(c1)CCC(Cc1cc[n+](Cc3ccccc3C)cc1C(C)=O)C2=O (stereo not given) ?
(A) Condition not met

(Q) Request: COc1cc2c(cc1OC)C(=O)C(Cc1cc[n+](Cc3ccccc3)cc1Br)C2 (stereo not given)
(A) Condition not met

Next, consider the following compound.
(Q) Input COc1ccc2c(c1)CCC(Cc1cc[n+](Cc3ccccc3Cl)cc1C(N)=O)C2=O (stereo not given) ; condition: Ratio IC50 strictly below 20. Does it hold?
(A) Condition met

* * *

IC50, UniProt P22303, per-entry values.
Only the number, expressed in nM, is required.

(Q) Endpoint output: IC50 of COc1cc2c(cc1OC)C(=O)C(Cc1cc[n+](Cc3cccc(C)n3)cc1C(N)=O)C2 (stereo not given) . Value?
(A) 1860

(Q) Also check COc1ccc2c(c1)CCC(Cc1cc[n+](Cc3ccccc3Cl)cc1C(N)=O)C2=O (stereo not given)
(A) 379

(Q) Repeat with COC(=O)c1c[n+](Cc2cccc(Cl)c2)ccc1CCC(=O)c1ccc(OC)c(OC)c1
(A) 171

Continuing:
(Q) Which IC50 reading was recorded for the molecule CC(=O)c1c[n+](Cc2cccc(Cl)c2)ccc1CC1Cc2cc(O)ccc2C1=O (stereo not given) ?
(A) 116

* * *

Reported Ratio IC50 by item:
# measurement_notes: Selectivity index, ratio of IC50 for equine serum BChE to IC50 for human erythrocyte AChE

Known Ratio IC50 results, listed for orientation:
(Q) What value of Ratio IC50 has been recorded for this entry: COc1ccc2c(c1)CCC(Cc1cc[n+](Cc3cccc(C)c3)cc1C(C)=O)C2=O (stereo not given)
(A) 5.3

(Q) Check CC(=O)c1c[n+](Cc2ccccc2C)ccc1CC1Cc2cc(OCC(F)(F)F)ccc2C1=O (stereo not given) too.
(A) 112

(Q) Another: COc1ccc2c(c1)CCC(Cc1cc[n+](Cc3ccccc3C)cc1C(N)=O)C2=O (stereo not given)
(A) 10.2

(Q) Further, for COc1ccc(C(=O)CCc2cc[n+](Cc3cccc(Cl)c3)cc2C#N)cc1OC ?
(A) 191

--- query ---
(Q) Recorded Ratio IC50 for COc1ccc2c(c1)CCC(Cc1cc[n+](Cc3cccc(C)c3)cc1Br)C2=O (stereo not given) , please?
(A) 40

* * *

# experimental_system: Acetylcholinesterase (Homo sapiens)
# Sequence (P22303 whole entry): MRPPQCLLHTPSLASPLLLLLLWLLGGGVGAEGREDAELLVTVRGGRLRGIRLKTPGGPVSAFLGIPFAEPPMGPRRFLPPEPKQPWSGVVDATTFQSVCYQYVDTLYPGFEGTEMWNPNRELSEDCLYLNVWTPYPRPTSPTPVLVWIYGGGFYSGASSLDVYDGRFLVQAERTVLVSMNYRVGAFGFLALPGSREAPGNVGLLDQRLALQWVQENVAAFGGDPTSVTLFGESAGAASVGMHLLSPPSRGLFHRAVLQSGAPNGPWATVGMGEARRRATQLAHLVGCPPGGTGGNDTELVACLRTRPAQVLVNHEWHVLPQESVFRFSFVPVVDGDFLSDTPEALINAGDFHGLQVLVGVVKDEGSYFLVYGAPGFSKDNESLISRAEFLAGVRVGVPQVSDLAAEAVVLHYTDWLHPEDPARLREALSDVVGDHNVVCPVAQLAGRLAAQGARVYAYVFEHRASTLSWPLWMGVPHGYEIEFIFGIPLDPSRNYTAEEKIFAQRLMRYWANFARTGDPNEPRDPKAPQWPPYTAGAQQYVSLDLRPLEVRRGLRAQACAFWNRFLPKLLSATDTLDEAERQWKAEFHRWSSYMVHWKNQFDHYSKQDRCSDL
pIC50: −log10 of the molar value.
Returns Met if the recorded pIC50 is greater than or equal to 7, and Not met otherwise.

(Q) Check if pIC50 >= 7 (inclusive). Item: COc1ccc(C(=O)CCC2C=CN(Cc3cccc(Cl)c3)C=C2C(N)=O)cc1OC (configuration not stated)
(A) Not met

Next compound, please.
(Q) Assess whether reported pIC50 for COc1ccc(C(=O)CCc2cc[n+](Cc3cccc(F)c3)cc2C#N)cc1OC sits at 7 or higher.
(A) Met
